Target: full-length Xenopus IRBP (Xenopus laevis, UniProt Q7SZI7)
Construct: We expressed the full-length IRBP as well as its individual modules as thioredoxin-fusion proteins using pTrxFus and pThioHis vectors; made in house; host or cells: E. coli Top10 (pThioHis)
Sequence (Q7SZI7 23-1219): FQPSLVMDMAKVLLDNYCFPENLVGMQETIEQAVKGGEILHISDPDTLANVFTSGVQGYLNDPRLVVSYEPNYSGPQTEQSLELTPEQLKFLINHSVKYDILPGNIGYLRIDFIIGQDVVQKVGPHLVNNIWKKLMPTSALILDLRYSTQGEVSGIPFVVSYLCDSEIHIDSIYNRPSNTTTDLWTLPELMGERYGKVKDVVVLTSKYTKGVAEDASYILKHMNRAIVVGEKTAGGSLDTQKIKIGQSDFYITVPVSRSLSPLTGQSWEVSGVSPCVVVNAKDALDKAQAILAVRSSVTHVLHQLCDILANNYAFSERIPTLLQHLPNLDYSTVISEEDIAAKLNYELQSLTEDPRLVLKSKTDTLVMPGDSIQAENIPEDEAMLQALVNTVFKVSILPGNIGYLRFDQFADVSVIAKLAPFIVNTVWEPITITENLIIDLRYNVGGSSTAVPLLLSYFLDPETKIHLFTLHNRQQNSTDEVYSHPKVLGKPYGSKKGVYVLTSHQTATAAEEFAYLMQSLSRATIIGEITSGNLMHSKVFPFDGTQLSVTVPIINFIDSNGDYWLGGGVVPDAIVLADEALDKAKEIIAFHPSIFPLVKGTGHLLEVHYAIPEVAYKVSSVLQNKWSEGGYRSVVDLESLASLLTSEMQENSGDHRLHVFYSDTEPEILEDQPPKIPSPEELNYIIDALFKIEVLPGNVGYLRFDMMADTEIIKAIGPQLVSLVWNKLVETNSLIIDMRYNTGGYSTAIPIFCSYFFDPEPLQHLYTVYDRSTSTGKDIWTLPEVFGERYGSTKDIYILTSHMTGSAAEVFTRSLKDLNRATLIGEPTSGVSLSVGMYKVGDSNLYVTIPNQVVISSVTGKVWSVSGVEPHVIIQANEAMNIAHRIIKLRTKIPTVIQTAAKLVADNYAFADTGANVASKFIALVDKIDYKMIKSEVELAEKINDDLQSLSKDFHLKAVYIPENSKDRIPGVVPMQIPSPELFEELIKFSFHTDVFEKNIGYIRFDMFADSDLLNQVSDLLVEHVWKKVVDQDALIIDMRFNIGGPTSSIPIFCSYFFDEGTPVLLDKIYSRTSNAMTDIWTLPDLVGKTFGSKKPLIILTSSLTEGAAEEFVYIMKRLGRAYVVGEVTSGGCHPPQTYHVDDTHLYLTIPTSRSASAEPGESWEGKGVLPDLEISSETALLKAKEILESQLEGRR
Assay: Fluorometric titration (ligand fluorescence enhancement, protein quenching, energy transfer)
Format: binding
Settings: quenching of protein fluorescence by 9-AS, ex 280 nm, em 340 nm; read-out: Kd, Quenching
Source text: The binding parameters of retinoid-binding proteins including IRBP may be determined by fluorescence spectroscopy. The method utilizes changes in quantum yield occurring during ligand binding. Such changes are represented by enhancement of ligand fluorescence, quenching of intrinsic protein fluorescence, and transfer of energy from protein to bound ligand. […] […] This equation has been previously applied to the analysis of binding by monitoring the enhancement of retinol fluorescence. […]
recorded.endpoint: Kd (nM)
Kindly provide the numeric value in nM only, without the unit symbol.

What is its Kd for full-length Xenopus IRBP (Xenopus laevis, UniProt Q7SZI7)? Entry: CCCCCCCCCC(CCCCCCCC(=O)O)OC(=O)c1c2ccccc2cc2ccccc12 (stereo not shown)
290

###

molecular target: Xenopus IRBP Module 4 (Xenopus laevis); construct: cDNAs corresponding to the full-length IRBP, module 1, and module 2 were expressed in pThioHis; modules 3 and 4 were expressed in pTrxFus; made in house; host or cells: E. coli GI724 / GI698 (pTrxFus); test: Fluorometric titration (enhancement, quenching); assay type: binding; conditions: 9-AS fluorescence enhancement, ex 360 nm, em 440 nm; read-out: Kd, Enhancement
recorded.endpoint: Kd
Provide a numeric answer, followed by its unit.

Name the reported Kd value associated with the molecule CCCCCCCCCC(CCCCCCCC(=O)O)OC(=O)c1c2ccccc2cc2ccccc12 (stereo not shown)
82 nM

###

target: Xenopus IRBP Module 1 (Xenopus laevis, UniProt Q7SZI7); test: Fluorometric titration (enhancement, quenching); format: binding; set-up: cDNAs corresponding to the full-length IRBP, module 1, and module 2 were expressed in pThioHis; modules 3 and 4 were expressed in pTrxFus; made in house; host or cells: E. coli Top10 (pThioHis); conditions: quenching by all-trans retinol, ex 280 nm, em 340 nm; read-out: Kd, Quenching
Sequence (Q7SZI7 23-315): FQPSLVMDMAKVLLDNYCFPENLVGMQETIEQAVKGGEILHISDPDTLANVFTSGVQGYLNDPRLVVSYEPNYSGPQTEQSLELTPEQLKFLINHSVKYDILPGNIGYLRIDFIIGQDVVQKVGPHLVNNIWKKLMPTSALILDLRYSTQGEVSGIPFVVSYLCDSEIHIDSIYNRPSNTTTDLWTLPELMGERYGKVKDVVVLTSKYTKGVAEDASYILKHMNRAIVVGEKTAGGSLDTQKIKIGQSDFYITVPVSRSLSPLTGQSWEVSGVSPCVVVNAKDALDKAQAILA
recorded.endpoint: pKd
# pKd: negative log10 of molar concentration; output just the value

Name the reported pKd value associated with the compound CC1=C(/C=C/C(C)=C/C=C/C(C)=C/CO)C(C)(C)CCC1 [all-trans retinol]
6.46

###

molecular target: Xenopus IRBP Module 3 (Xenopus laevis); construct: cDNAs corresponding to the full-length IRBP, module 1, and module 2 were expressed in pThioHis; modules 3 and 4 were expressed in pTrxFus; made in house; host or cells: E. coli GI724 / GI698 (pTrxFus); experiment: Competitive fluorescence titration of all-trans retinol with 11-cis retinaldehyde; format: binding; details: competition, in presence of 11-cis retinal; protein 1.10 μM; read-out: Kd All-trans retinol
Sequence (Q7SZI7 616-912): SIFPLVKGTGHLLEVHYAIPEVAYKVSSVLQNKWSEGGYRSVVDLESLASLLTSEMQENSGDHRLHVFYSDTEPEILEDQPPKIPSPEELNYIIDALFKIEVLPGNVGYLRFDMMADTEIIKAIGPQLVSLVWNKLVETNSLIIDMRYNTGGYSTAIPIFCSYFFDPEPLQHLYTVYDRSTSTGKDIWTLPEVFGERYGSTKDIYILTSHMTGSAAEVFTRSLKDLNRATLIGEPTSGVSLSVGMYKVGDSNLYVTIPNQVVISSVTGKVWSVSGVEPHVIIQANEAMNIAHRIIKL
recorded.endpoint: pKd
# pKd: negative log10 of molar concentration; output just the value

Name the reported pKd value associated with the compound CC1=C(/C=C/C(C)=C/C=C/C(C)=C/CO)C(C)(C)CCC1 [all-trans retinol]
6.08

###

target: X(3,4)IRBP (Xen IRBP modules 3&4) (Xenopus laevis, UniProt Q7SZI7)
Sequence (Q7SZI7 618-1219): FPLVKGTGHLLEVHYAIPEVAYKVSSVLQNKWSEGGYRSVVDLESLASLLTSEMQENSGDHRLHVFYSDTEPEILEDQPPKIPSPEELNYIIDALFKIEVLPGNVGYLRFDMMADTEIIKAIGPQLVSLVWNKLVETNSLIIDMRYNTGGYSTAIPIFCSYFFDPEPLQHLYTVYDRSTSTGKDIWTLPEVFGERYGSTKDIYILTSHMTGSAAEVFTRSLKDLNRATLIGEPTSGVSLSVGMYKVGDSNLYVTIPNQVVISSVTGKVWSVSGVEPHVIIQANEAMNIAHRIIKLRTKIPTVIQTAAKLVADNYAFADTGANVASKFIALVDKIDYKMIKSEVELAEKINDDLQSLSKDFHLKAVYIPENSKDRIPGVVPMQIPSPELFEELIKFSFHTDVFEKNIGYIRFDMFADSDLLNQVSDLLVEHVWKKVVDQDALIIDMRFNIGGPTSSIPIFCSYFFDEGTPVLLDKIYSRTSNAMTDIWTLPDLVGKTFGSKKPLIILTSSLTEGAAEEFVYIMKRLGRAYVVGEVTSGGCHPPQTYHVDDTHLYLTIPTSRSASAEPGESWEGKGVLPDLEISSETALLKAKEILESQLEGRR
recorded.endpoint: Kd (nM)
Kindly provide the numeric value in nM only, without the unit symbol.

Name the reported Kd value associated with the molecule CC1=C(/C=C/C(C)=C/C=C/C(C)=C/CO)C(C)(C)CCC1 [all-trans retinol]
190

###

molecular target: Xenopus IRBP Module 1 (Xenopus laevis, UniProt Q7SZI7); experiment: Fluorometric titration (enhancement, quenching); format: binding; set-up: cDNAs corresponding to the full-length IRBP, module 1, and module 2 were expressed in pThioHis; modules 3 and 4 were expressed in pTrxFus; made in house; host or cells: E. coli Top10 (pThioHis); conditions: all-trans retinol fluorescence enhancement, ex 330 nm, em 480 nm; read-out: Kd, Enhancement
recorded.endpoint: pKd
# pKd: negative log10 of molar concentration; output just the value

Name the reported pKd value associated with the compound CC1=C(/C=C/C(C)=C/C=C/C(C)=C/CO)C(C)(C)CCC1 [all-trans retinol]
6.36

###

target: Xenopus IRBP Module 4 (Xenopus laevis, UniProt Q7SZI7); construct: cDNAs corresponding to the full-length IRBP, module 1, and module 2 were expressed in pThioHis; modules 3 and 4 were expressed in pTrxFus; made in house; host or cells: E. coli GI724 / GI698 (pTrxFus); test: Fluorometric titration (enhancement, quenching); assay type: binding; conditions: quenching by all-trans retinol, ex 280 nm, em 340 nm; read-out: Kd, Quenching
Sequence (Q7SZI7 923-1219): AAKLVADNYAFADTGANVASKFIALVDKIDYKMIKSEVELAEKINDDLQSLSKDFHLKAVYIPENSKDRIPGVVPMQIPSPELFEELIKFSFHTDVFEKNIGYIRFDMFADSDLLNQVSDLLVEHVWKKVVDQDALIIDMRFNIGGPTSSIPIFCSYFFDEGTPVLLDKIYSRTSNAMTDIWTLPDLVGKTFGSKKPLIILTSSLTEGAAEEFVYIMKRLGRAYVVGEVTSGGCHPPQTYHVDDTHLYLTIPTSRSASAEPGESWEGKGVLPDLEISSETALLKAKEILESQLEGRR
recorded.endpoint: Kd (nM)
Kindly provide the numeric value in nM only, without the unit symbol.

Name the reported Kd value associated with the compound CC1=C(/C=C/C(C)=C/C=C/C(C)=C/CO)C(C)(C)CCC1 [all-trans retinol]
640

###

target: full-length Xenopus IRBP (Xenopus laevis, UniProt Q7SZI7); construct: We expressed the full-length IRBP as well as its individual modules as thioredoxin-fusion proteins using pTrxFus and pThioHis vectors; made in house; host or cells: E. coli Top10 (pThioHis); assay: Fluorometric titration (ligand fluorescence enhancement, protein quenching, energy transfer); format: binding; settings: all-trans retinol, energy transfer, ex 280 nm, em 480 nm; read-out: Kd, energy transfer
recorded.endpoint: Kd (nM)
Kindly provide the numeric value in nM only, without the unit symbol.

What is its Kd for full-length Xenopus IRBP (Xenopus laevis, UniProt Q7SZI7)? Entry: CC1=C(/C=C/C(C)=C/C=C/C(C)=C/CO)C(C)(C)CCC1 [all-trans retinol]
290

###

molecular target: full-length Xenopus IRBP (Xenopus laevis); construct: We expressed the full-length IRBP as well as its individual modules as thioredoxin-fusion proteins using pTrxFus and pThioHis vectors; made in house; host or cells: E. coli Top10 (pThioHis); assay: Fluorometric titration (ligand fluorescence enhancement, protein quenching, energy transfer); type: binding; conditions: 9-AS fluorescence enhancement, ex 360 nm, em 440 nm; read-out: Kd, Enhancement
recorded.endpoint: Kd (nM)
Kindly provide the numeric value in nM only, without the unit symbol.

Name the reported Kd value associated with the compound CCCCCCCCCC(CCCCCCCC(=O)O)OC(=O)c1c2ccccc2cc2ccccc12 (stereo not shown)
280

###

biological target: Xenopus IRBP Module 1 (Xenopus laevis); test: Competitive fluorescence titration of all-trans retinol with 11-cis retinaldehyde; type: binding; settings: competition with all-trans retinol; protein 0.99 μM; read-out: Kd 11-cis retinal
Sequence (Q7SZI7 23-318): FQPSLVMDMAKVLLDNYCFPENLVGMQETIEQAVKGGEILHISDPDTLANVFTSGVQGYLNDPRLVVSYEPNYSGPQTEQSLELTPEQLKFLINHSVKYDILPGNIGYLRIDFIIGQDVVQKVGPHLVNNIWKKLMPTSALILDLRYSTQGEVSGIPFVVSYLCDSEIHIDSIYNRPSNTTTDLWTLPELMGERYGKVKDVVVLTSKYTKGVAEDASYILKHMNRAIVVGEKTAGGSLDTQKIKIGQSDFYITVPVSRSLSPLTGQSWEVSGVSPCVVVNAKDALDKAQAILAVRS
recorded.endpoint: Kd (nM)
Kindly provide the numeric value in nM only, without the unit symbol.

What is its Kd for Xenopus IRBP Module 1 (Xenopus laevis)? Entry: CC1=C(/C=C/C(C)=C/C=C/C(C)=C/C=O)C(C)(C)CCC1 [11-cis retinal]
570
